Molecular target: UniProt:P9WGR1
Sequence (P9WGR1 whole entry, looked up): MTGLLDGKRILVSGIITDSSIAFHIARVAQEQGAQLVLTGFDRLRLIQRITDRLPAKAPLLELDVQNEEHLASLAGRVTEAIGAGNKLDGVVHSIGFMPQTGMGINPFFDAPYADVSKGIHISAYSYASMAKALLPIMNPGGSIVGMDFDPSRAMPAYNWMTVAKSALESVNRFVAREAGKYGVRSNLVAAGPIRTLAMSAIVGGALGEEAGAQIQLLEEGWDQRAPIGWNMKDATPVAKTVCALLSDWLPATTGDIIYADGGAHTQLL
Experiment: InhA enzyme inhibition, steady state kinetics
Assay type: biochemical
Measurement Name: IC50 (nM)
One number for each entry, in nM.

INSERT INTO results (compound, experimental_system, value_units, measurement) VALUES
  ('CCCCCCc1ccc(Oc2cnccc2N)c(O)c1 [PT112]', 'UniProt:P9WGR1', 'nM', 69000),
  ('CCCCCCc1ccc(Oc2ccccc2C(F)(F)F)c(O)c1 [PT095]', 'UniProt:P9WGR1', 'nM', 29.7);

I have 3 compounds here; please give me IC50 for each one.
1. CCCCCCc1ccc(Oc2cncnc2N)c(O)c1 [PT134]
2. CCCCCCc1ccc(Oc2cnccc2C#N)c(O)c1 [PT115]
3. CCCCCCc1ccc(Oc2ccccc2F)c(O)c1 [PT113, 2-(2-Fluorophenoxy)-5-hexylphenol]

[239, 891, 12.1]

Would you mind listing IC50 for each of the following compounds?
1. CCCCCCc1ccc(Oc2ccccc2O)c(O)c1 [PT114, 5-Hexyl-2-(2-hydroxyphenoxy)phenol]
2. CCCCCCc1ccc(Oc2cccnc2C#N)c(O)c1 [PT164]
3. CCCCCCc1ccc(Oc2c(C)cccc2C)c(O)c1 [PT108, 2-(2,6-Dimethylphenoxy)-5-hexylphenol]
4. CCCCCCc1ccc(Oc2ccccc2I)c(O)c1 [PT096, 5-Hexyl-2-(2-iodophenoxy)phenol]

1. 48
2. 308
3. 1570
4. 44.6
